Answer each item with its documented Activity.
# Test system: Mus musculus
# Procedure Details: Effect on serum ALP lavel in ovariectomized mouse at 0.1103 mmol/kg, ip once daily for 4 weeks
# Type: functional
Where a SMILES comes first, the peptide text is derived from it. The star is where a group is joined. Succinyl(O17-estradiol) = C[C@]12CC[C@@H]3c4ccc(O)cc4CC[C@H]3[C@@H]1CC[C@@H]2OC(=O)CCC(=O)*; X2 = C[C@]12CC[C@@H]3c4ccc(OCC(=O)*)cc4CC[C@H]3[C@@H]1CCC2=O; X1 = C[C@]12CC[C@@H]3c4ccc(OCC(=O)*)cc4CC[C@H]3[C@@H]1CCC2O
A complete answer gives the number and then names the unit.

# example entries with known answers
1) C[C@]12CC[C@@H]3c4ccc(O)cc4CC[C@H]3[C@@H]1CC[C@@H]2OC(=O)CCC(=O)N[C@@H](CCCNC(=N)N)C(=O)NCC(=O)N[C@@H](CC(=O)O)C(=O)N[C@@H](CO)C(=O)O ({Succinyl(O17-estradiol)}-RGDS-OH) | 32.771 U/L
2) CC(C)[C@H](NC(=O)[C@H](CC(=O)O)NC(=O)CNC(=O)[C@H](CCCNC(=N)N)NC(=O)COc1ccc2c(c1)CC[C@@H]1[C@@H]2CC[C@]2(C)C(=O)CC[C@@H]12)C(=O)O (X2-RGDV-OH) | 32.229 U/L
3) CC(C)[C@H](NC(=O)[C@H](CC(=O)O)NC(=O)CNC(=O)[C@H](CCCNC(=N)N)NC(=O)COc1ccc2c(c1)CC[C@@H]1[C@@H]2CC[C@]2(C)C(O)CC[C@@H]12)C(=O)O (some centres undefined) (X1-RGDV-OH) | 30.514 U/L

Continue with the compound presented below.
## Input Quote Activity reported for `C[C@]12CC[C@@H]3c4ccc(O)cc4CC[C@H]3[C@@H]1CCC2=O` please.
## Output 36.271 U/L

###

Answer each item with its documented Activity.
# Tested on: Mus musculus
# Procedure Details: Effect on liver weight in ovariectomized mouse at 0.110 mmol/kg, ip once daily for 4 weeks
# Assay type: functional
Where a SMILES comes first, the peptide text is derived from it. The star is where a group is joined. Succinyl(O17-estradiol) = C[C@]12CC[C@@H]3c4ccc(O)cc4CC[C@H]3[C@@H]1CC[C@@H]2OC(=O)CCC(=O)*
One number for each entry, in g.

1) N=C(N)NCCC[C@H](N)C(=O)NCC(=O)N[C@@H](CC(=O)O)C(=O)N[C@@H](CO)C(=O)O | 1.295

Answer for every listed entry: what is its Activity? The entries follow.
1. C[C@]12CC[C@@H]3c4ccc(O)cc4CC[C@H]3[C@@H]1CCC2=O
2. C[C@]12CC[C@@H]3c4ccc(O)cc4CC[C@H]3[C@@H]1CC[C@@H]2OC(=O)CCC(=O)N[C@@H](CCCNC(=N)N)C(=O)NCC(=O)N[C@@H](CC(=O)O)C(=O)N[C@@H](Cc1ccccc1)C(=O)O ({Succinyl(O17-estradiol)}-RGDF-OH)

## Output
1: 1.318; 2: 1.391

###

# System: Mus musculus
# Procedure Details: Effect on uterus weight in mouse at 0.1103 mmol/kg, po
# Assay type: functional
Where a SMILES comes first, the peptide text is derived from it. The star is where a group is joined. Succinyl(O17-estradiol) = C[C@]12CC[C@@H]3c4ccc(O)cc4CC[C@H]3[C@@H]1CC[C@@H]2OC(=O)CCC(=O)*; X1 = C[C@]12CC[C@@H]3c4ccc(OCC(=O)*)cc4CC[C@H]3[C@@H]1CCC2O
Answer each item with its documented Activity.
Give bare numbers, in mg.

# example entries with known answers
1) C[C@]12CC[C@@H]3c4ccc(O)cc4CC[C@H]3[C@@H]1CC[C@@H]2OC(=O)CCC(=O)N[C@@H](CCCNC(=N)N)C(=O)NCC(=O)N[C@@H](CC(=O)O)C(=O)N[C@@H](Cc1ccccc1)C(=O)O ({Succinyl(O17-estradiol)}-RGDF-OH) | 38.2
2) C[C@]12CC[C@@H]3c4ccc(OCC(=O)N[C@@H](CCCNC(=N)N)C(=O)NCC(=O)N[C@@H](CC(=O)O)C(=O)N[C@@H](Cc5ccccc5)C(=O)O)cc4CC[C@H]3[C@@H]1CCC2O (some centres undefined) (X1-RGDF-OH) | 47.5
3) CC(C)[C@H](NC(=O)[C@H](CC(=O)O)NC(=O)CNC(=O)[C@H](CCCNC(=N)N)NC(=O)COc1ccc2c(c1)CC[C@@H]1[C@@H]2CC[C@]2(C)C(O)CC[C@@H]12)C(=O)O (some centres undefined) (X1-RGDV-OH) | 40.7

Continue with the compound presented below.
## Input Quote Activity reported for C[C@]12CC[C@@H]3c4ccc(O)cc4CC[C@H]3[C@@H]1CC[C@@H]2OC(=O)CCC(=O)N[C@@H](CCCNC(=N)N)C(=O)NCC(=O)N[C@@H](CC(=O)O)C(=O)N[C@@H](CO)C(=O)O ({Succinyl(O17-estradiol)}-RGDS-OH) please.
## Output 36.7

src = ChEMBL document CHEMBL1145431
